Below are IC50 values for TGF-beta receptor type-1 (Homo sapiens, UniProt P36897) collected from several publications.

Study these solved cases before continuing.
>>> value_reported("Cc1cccc(-c2nc(C(C)C)sc2Oc2ccnc(Nc3cccc(S(N)(=O)=O)c3)c2)n1")
"< 0.1 µM"
>>> value_reported("Cc1cccc(-c2nc(N)sc2Oc2ccnc(Nc3cccc(C(=O)O)c3)c2)n1")
"< 0.1 µM"
>>> value_reported("NS(=O)(=O)c1cccc(Nc2cc(Oc3sc(NC4CC4)nc3-c3ccccc3)ccn2)c1")
"< 0.1 µM"
>>> value_reported("Cc1cccc(-c2nc3n(c2-c2ccc4ncnn4c2)CC2CC32)n1 (stereo not shown)")
"0.0056 µM"

get_value(item= `O=C(O)c1ccc(Nc2cc(Oc3oc(C4CC4)nc3-c3ccccc3)ccn2)nc1` , readout=IC50) returns < 0.1 µM

get_value(item= `CC(C)(O)c1cc(Nc2cc(Oc3sc(C4CC4)nc3-c3ccccc3)ccn2)ccn1` , readout=IC50) returns < 0.1 µM

get_value(item= `CCc1nc(-c2cccc(C)n2)c(Oc2ccnc(Nc3cccc(S(N)(=O)=O)c3)c2)s1` , readout=IC50) returns < 0.1 µM

get_value(item= `Cc1nc(-c2ccccc2)c(Oc2ccnc(Nc3ccc(S(N)(=O)=O)cc3)c2)s1` , readout=IC50) returns < 0.1 µM

get_value(item= `CC(C)c1nc(-c2ccccc2)c(Oc2ccnc(Nc3ccc(C(N)=O)cn3)c2)s1` , readout=IC50) returns < 0.1 µM

get_value(item= `CNc1nc(-c2ccccc2)c(Oc2ccnc(Nc3cccc(C(C)(C)O)c3)c2)s1` , readout=IC50) returns < 0.1 µM

get_value(item= `CCc1nc(-c2cccc(C)n2)c(Oc2ccnc(Nc3cccc(C(=O)O)c3)c2)s1` , readout=IC50) returns < 0.1 µM

get_value(item= `CCc1nc(-c2cccc(C)n2)c(Oc2ccnc(Nc3cccc(C(N)=O)c3)c2)s1` , readout=IC50) returns < 0.1 µM

get_value(item= Cc1cccc(-c2nc3n(c2-c2ccc4ncsc4c2)CC2CC32)n1 (stereo not shown) , readout=IC50) returns 0.006 µM

get_value(item= `CC(C)c1nc(-c2ccccc2)c(Oc2ccnc(Nc3ccc(S(N)(=O)=O)cc3)c2)s1` , readout=IC50) returns < 0.1 µM

get_value(item= `NS(=O)(=O)c1ccc(Nc2cc(Oc3sc(C4CC4)nc3-c3ccccc3)ccn2)cc1` , readout=IC50) returns < 0.1 µM

get_value(item= `CN(C)c1nc(-c2ccccc2)c(Oc2ccnc(Nc3ccc(C(=O)O)cn3)c2)s1` , readout=IC50) returns < 0.1 µM

get_value(item= `Cc1nc(-c2ccccc2)c(Oc2ccnc(Nc3cccc(C(N)=O)c3)c2)s1` , readout=IC50) returns < 0.1 µM

get_value(item= `Nc1nc(-c2ccc3ccccc3c2)c(Oc2ccnc(Nc3cccc(S(N)(=O)=O)c3)c2)s1` , readout=IC50) returns > 0.1 µM

get_value(item= `O=C(O)c1ccc(Nc2cc(Oc3sc(NC4CC4)nc3-c3ccccc3)ccn2)cc1` , readout=IC50) returns < 0.1 µM

get_value(item= `CNC(=O)c1ccc(Nc2cc(Oc3sc(N(C)C)nc3-c3cccc(C)n3)ccn2)nc1` , readout=IC50) returns < 0.1 µM

get_value(item= `Cc1cccc(-c2nn3c(c2-c2ccnc(-c4nc5c([nH]4)CN(S(=O)(=O)C(C)C)C5)c2)CCC3)n1` , readout=IC50) returns 0.0013 µM

get_value(item= `CS(=O)(=O)Nc1ccc(Nc2cc(Oc3sc(C4CC4)nc3-c3ccccc3)ccn2)cc1` , readout=IC50) returns < 0.1 µM

get_value(item= `Cc1cccc(-c2nc(N(C)C)sc2Oc2ccnc(Nc3ccc(C(=O)O)cn3)c2)n1` , readout=IC50) returns < 0.1 µM

get_value(item= `Cc1cccc(-c2nn(Cc3ccccc3F)cc2-c2ccnc(-c3nc4c([nH]3)CN(S(C)(=O)=O)C4)c2)n1` , readout=IC50) returns 0.0056 µM

get_value(item= Cc1cccc(-c2nc3n(c2-c2ccnc(-c4nc5c([nH]4)CN(C4CCC(O)CC4)C5)c2)CCC3)n1 (stereo not shown) , readout=IC50) returns 0.025 µM

get_value(item= `COc1nc(-c2ccccc2)c(Oc2ccnc(Nc3cccc(C(=O)O)c3)c2)s1` , readout=IC50) returns < 0.1 µM

get_value(item= `Cc1cccc(-c2n[nH]cc2-c2ccnc(-c3nc4c([nH]3)CNCC4)c2)n1` , readout=IC50) returns 0.013 µM
